Quick reference: pKd of the listed items.
target.under.test: P-selectin (PS-Rg) (Homo sapiens, UniProt P16109 P16109:42-321)
Sequence (P16109 42-321, one chain of several): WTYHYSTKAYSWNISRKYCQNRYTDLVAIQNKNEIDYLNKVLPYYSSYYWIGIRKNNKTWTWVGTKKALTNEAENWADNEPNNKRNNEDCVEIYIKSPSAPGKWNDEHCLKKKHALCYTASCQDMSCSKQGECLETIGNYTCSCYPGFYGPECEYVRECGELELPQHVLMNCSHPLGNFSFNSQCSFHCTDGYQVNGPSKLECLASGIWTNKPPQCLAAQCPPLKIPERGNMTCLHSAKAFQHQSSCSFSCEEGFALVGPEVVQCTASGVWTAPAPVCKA
protocol: filter; HSMC
stated.conditions: tags: human IgG1 Fc fusion; chain copies: dimer
pKd here is simply -log10 of the concentration when that concentration is written in mol/L.

Look over these answered cases.
{"binder": "CUCAACGAGCCAGGAACAUCGACGUCAGCAAACGCGAG (ssRNA, 2'-F on all C and U; 2'-OMe purines at 11 positions) [PF377M6]", "quantitative.readout": 9.60}
{"binder": "GAAUCCGGAACACGCGAGAAAACAAAUCAACGACCAAUCGAUUCG (ssRNA, 2'-F on all C and U) [PF422s1]", "quantitative.readout": 9.00}
{"binder": "CUCAACGAAUCAGUAAACAUAACACCAUGAAACAUAAAUAGCACGCGAG (ssRNA, 2'-F on all C and U) [PF373s1]", "quantitative.readout": 10.25}

Shifting focus to the binder that follows.
Ask | Request the reported pKd associated with CUCAACGAGCCAGGACUACGAUCAGCAAACGCGAG (ssRNA, 2'-F on all C and U) [PF377L1]
Reply | 9.66
